- Target Entity: T1, human programmed cell death protein 1 (hPD-1) C93S (aa 24-167) (Homo sapiens, UniProt Q15116, C93S)
- T1 construct: made as a fusion with a TEV site and human Fc; the Fc was cut off with TEV protease; source: Expi293F, purified (Protein A, TEV cleavage of Fc, SEC; monomer fractions); not shown: Fc (human), C-terminal, cleaved
- T1 sequence (Q15116 24-167 C93S): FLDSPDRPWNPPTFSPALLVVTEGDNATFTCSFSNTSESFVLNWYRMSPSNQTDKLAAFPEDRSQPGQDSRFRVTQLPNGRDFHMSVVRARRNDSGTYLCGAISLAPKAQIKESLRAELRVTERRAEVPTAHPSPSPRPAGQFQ
- Measurement Notes: SPR; Carterra LSA; Fab from the ammonium sulfate precipitate of the culture supernatant immobilised on a NiHC200M chip; hPD-1 (1-1024 nM) or mPD-1-Fc (4-1024 nM) as analyte, fourfold dilution series, no regeneration; HBS-EP pH 7.4, 25 °C; medians over the spots of a construct, KD = koff/kon
- Stated Conditions: one partner purified
I'd be grateful if you could share measured log10 koff for these entries.
Values below are the log10 of the recorded koff, with s⁻¹ as the unit.

log10 koff recorded for this binder, toripalimab Fab H.T102Y (Fab, V domains shown, heavy chain of Sm3 with this change; numbers count from the chain's first residue; as the light chain of Sm3; source: Brevibacillus, culture supernatant (ammonium sulfate precipitate); not shown: 6xHis, C-terminal, kept; 6xHN, C-terminal, kept) VH: QGQLVQSGAEVKKPGASVKVSCKASGYTFTDYEMHWVRQAPIHGLEWIGVIESETGGTAYNQKFKGRVTITADKSTSTAYMELSSLRSEDTAVYYCAREGIYTVATTYYWYFDVWGQGTTVTVSS VL: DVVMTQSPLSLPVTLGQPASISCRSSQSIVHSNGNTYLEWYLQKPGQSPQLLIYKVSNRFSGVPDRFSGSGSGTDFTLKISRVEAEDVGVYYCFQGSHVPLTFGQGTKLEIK , is -2.83

log10 koff recorded for this binder, toripalimab Fab L.P100H (Fab, V domains shown, as the heavy chain of Sm3; light chain of Sm3 with this change; numbers count from the chain's first residue; source: Brevibacillus, culture supernatant (ammonium sulfate precipitate); not shown: 6xHis, C-terminal, kept; 6xHN, C-terminal, kept) VH: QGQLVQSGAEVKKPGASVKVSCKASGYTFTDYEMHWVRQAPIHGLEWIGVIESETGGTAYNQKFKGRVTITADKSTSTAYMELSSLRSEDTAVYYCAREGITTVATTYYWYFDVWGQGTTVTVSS VL: DVVMTQSPLSLPVTLGQPASISCRSSQSIVHSNGNTYLEWYLQKPGQSPQLLIYKVSNRFSGVPDRFSGSGSGTDFTLKISRVEAEDVGVYYCFQGSHVHLTFGQGTKLEIK , is -4.81

log10 koff recorded for this binder, toripalimab Fab L.Y37A (Fab, V domains shown, as the heavy chain of Sm3; light chain of Sm3 with this change; numbers count from the chain's first residue; source: Brevibacillus, culture supernatant (ammonium sulfate precipitate); not shown: 6xHis, C-terminal, kept; 6xHN, C-terminal, kept) VH: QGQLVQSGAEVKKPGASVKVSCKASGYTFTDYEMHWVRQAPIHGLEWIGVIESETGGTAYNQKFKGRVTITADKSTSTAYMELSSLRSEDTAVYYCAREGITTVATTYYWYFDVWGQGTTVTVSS VL: DVVMTQSPLSLPVTLGQPASISCRSSQSIVHSNGNTALEWYLQKPGQSPQLLIYKVSNRFSGVPDRFSGSGSGTDFTLKISRVEAEDVGVYYCFQGSHVPLTFGQGTKLEIK , is -2.36

log10 koff recorded for this binder, toripalimab Fab L.P100Q (Fab, V domains shown, as the heavy chain of Sm3; light chain of Sm3 with this change; numbers count from the chain's first residue; source: Brevibacillus, culture supernatant (ammonium sulfate precipitate); not shown: 6xHis, C-terminal, kept; 6xHN, C-terminal, kept) VH: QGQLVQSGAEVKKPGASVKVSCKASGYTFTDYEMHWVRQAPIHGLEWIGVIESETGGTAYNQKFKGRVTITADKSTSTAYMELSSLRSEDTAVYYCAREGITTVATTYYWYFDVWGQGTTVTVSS VL: DVVMTQSPLSLPVTLGQPASISCRSSQSIVHSNGNTYLEWYLQKPGQSPQLLIYKVSNRFSGVPDRFSGSGSGTDFTLKISRVEAEDVGVYYCFQGSHVQLTFGQGTKLEIK , is -4.10

log10 koff recorded for this binder, toripalimab Fab H.G100A (Fab, V domains shown, heavy chain of Sm3 with this change; numbers count from the chain's first residue; as the light chain of Sm3; source: Brevibacillus, culture supernatant (ammonium sulfate precipitate); not shown: 6xHis, C-terminal, kept; 6xHN, C-terminal, kept) VH: QGQLVQSGAEVKKPGASVKVSCKASGYTFTDYEMHWVRQAPIHGLEWIGVIESETGGTAYNQKFKGRVTITADKSTSTAYMELSSLRSEDTAVYYCAREAITTVATTYYWYFDVWGQGTTVTVSS VL: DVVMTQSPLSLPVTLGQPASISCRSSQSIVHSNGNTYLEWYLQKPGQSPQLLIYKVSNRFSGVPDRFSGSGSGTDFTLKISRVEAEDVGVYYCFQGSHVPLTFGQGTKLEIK , is -4.85

This collection of values is drawn from paper PMC10663500.
